- System: Setaria faberi
- Assay details: Post-emergence herbicidal activity, glasshouse pot test
- Format: in vivo
- Set-up: key: 0 = no damage to plant, 5 = total damage to plant
- Experimental parameters: Application post-emergence, rate 1000 g/ha, evaluated after 13 days
Below: a set of entries, each annotated with reported SETFA herbicidal damage score.
Lab note: record the figure alone, no unit after it.

Before answering, review these 4 worked examples.
Compound | SETFA herbicidal damage score
COC1=C(C)C(O)N(c2cc(C(C)(C)F)c(C)nn2)C1=O (stereo not drawn) [BI16] | 5
COC1=C(OC)C(O)N(c2cc(Cl)c(Cl)cn2)C1=O (stereo not drawn) [AK7] | 5
COC1=C(C)C(O)N(c2nccc(C(C)(C)C)n2)C1=O (stereo not drawn) [DI1] | 5
COC1=C(C)C(O)N(c2cc3c(cn2)CCCC3)C1=O (stereo not drawn) [AI7] | 5

Quick one: SETFA herbicidal damage score of COC1=C(C)C(O)N(c2ccc(C(=O)NC(C)(C)C#N)cn2)C1=O (stereo not drawn) [AI25] ? 5

Quick one: SETFA herbicidal damage score of CC1=C(Cl)C(=O)N(c2cc(C(C)(C)C)ccn2)C1O (stereo not drawn) [AF36] ? 5

Quick one: SETFA herbicidal damage score of CC1=C(Cl)C(=O)N(c2cc(C(C)(C)C#N)ncn2)C1O (stereo not drawn) [CF14] ? 5

Quick one: SETFA herbicidal damage score of CC#Cc1nnc(N2C(=O)C(OC)=C(C)C2O)cc1C(C)(C)F (stereo not drawn) [BI12] ? 5

----------
- System: Amaranthus retroflexus
- Assay details: Post-emergence herbicidal activity, glasshouse pot test
- Type: in vivo
- Design: key: 0 = no damage to plant, 5 = total damage to plant
- Experimental parameters: Application post-emergence, rate 1000 g/ha, evaluated after 13 days
Measured attribute: AMARE herbicidal damage score
Lab note: record the figure alone, no unit after it.

Before answering, review these 2 worked examples.
Compound | Experimental system | Experimental value
CC1=C(Cl)C(=O)N(c2cc(C(C)(F)F)c(Cl)nn2)C1O (stereo not drawn) [BF12] | Amaranthus retroflexus | 5
CC1=C(Cl)C(=O)N(c2cc(C)ccn2)C1O (stereo not drawn) [AF41] | Amaranthus retroflexus | 5

Now consider a different compound.
Quick one: AMARE herbicidal damage score of CC#Cc1nnc(N2C(=O)C(OC)=C(C)C2O)cc1C(C)(C)F (stereo not drawn) [BI12] ? 5

----------
- Tested on: Amaranthus retroflexus
- Assay details: Post-emergence herbicidal activity, glasshouse pot test
- Type: in vivo
- Design: key: 0 = no damage to plant, 5 = total damage to plant
- Experimental parameters: Application post-emergence, rate 1000 g/ha, evaluated after 13 days
Measured attribute: AMARE herbicidal damage score
Lab note: record the figure alone, no unit after it.

Before answering, review these 4 worked examples.
Compound | Measured attribute | Experimental value
CC1=C(Cl)C(=O)N(c2cc([S+](C)[O-])ccn2)C1O (stereo not drawn) [AF51] | AMARE herbicidal damage score | 0
COC1=C(C)C(O)N(c2cc(C)c(C(=O)NC(C)C(C)C)cn2)C1=O (stereo not drawn) [AI36] | AMARE herbicidal damage score | 5
CC1=C(Cl)C(=O)N(c2cc(C(F)(F)Cl)ccn2)C1O (stereo not drawn) [AF98] | AMARE herbicidal damage score | 5
CC1=C(Cl)C(=O)N(c2cc(C(C)C)c(Cl)nn2)C1O (stereo not drawn) [BF10] | AMARE herbicidal damage score | 5

Quick one: AMARE herbicidal damage score of CC1=C(Cl)C(=O)N(c2cc(C(F)(F)F)c(C(F)(F)F)cn2)C1O (stereo not drawn) [AF43] ? 1

Quick one: AMARE herbicidal damage score of COC1=C(C)C(O)N(c2cc(C(C)(F)F)c(C#N)nn2)C1=O (stereo not drawn) [BI23] ? 3

Quick one: AMARE herbicidal damage score of CC1=C(Cl)C(=O)N(c2cc(C3(C#N)CC3)ncn2)C1O (stereo not drawn) [CF17] ? 5

Quick one: AMARE herbicidal damage score of CC1=C(Cl)C(=O)N(c2cc(C(F)(F)F)c(-c3nn(C)c4ccccc34)cn2)C1O (stereo not drawn) [AF105] ? 5

----------
- System: Amaranthus retroflexus
- Assay details: Post-emergence herbicidal activity, glasshouse pot test
- Type: in vivo
- Design: key: 0 = no damage to plant, 5 = total damage to plant
- Experimental parameters: Application post-emergence, rate 1000 g/ha, evaluated after 13 days
Measured attribute: AMARE herbicidal damage score
Lab note: record the figure alone, no unit after it.

Before answering, review these 4 worked examples.
Molecule | AMARE herbicidal damage score
COC1=C(C)C(O)N(c2cc(C(F)(F)F)c(C(=O)NC(C)(C)C)cn2)C1=O (centres unmarked) [AI6] | 5
CC1=C(Cl)C(=O)N(c2cc(C(C)(C)F)c(Cl)nn2)C1O (centres unmarked) [BF11] | 2
COC1=C(C)C(O)N(c2cc(C)c(C(=O)NC3(C#N)CC3)cn2)C1=O (centres unmarked) [AI34] | 5
CC1=C(Cl)C(=O)N(c2ccc(S(C)(=O)=O)cn2)C1O (centres unmarked) [AF54] | 0

Quick one: AMARE herbicidal damage score of CC1=C(Cl)C(=O)N(c2cc(C(F)(F)F)ncn2)C1O (centres unmarked) [CF3] ? 3

----------
- Test system: Amaranthus retroflexus
- Assay details: Post-emergence herbicidal activity, glasshouse pot test
- Assay type: in vivo
- Parameters: key: 0 = no damage to plant, 5 = total damage to plant
- Experimental parameters: Application post-emergence, rate 1000 g/ha, evaluated after 13 days
Measured attribute: AMARE herbicidal damage score
Lab note: record the figure alone, no unit after it.

Before answering, review these 4 worked examples.
Compound | AMARE herbicidal damage score
CCN(C)c1cc(N2C(=O)C(Cl)=C(C)C2O)ncn1 (centres unmarked) [CF16] | 3
CC(C)(C)C1=C(Cl)C(=O)N(c2cc(C(F)(F)F)ccn2)C1O (centres unmarked) [AF82] | 0
CSc1ccc(N2C(=O)C(Cl)=C(C)C2OC(C)=O)nc1 (centres unmarked) [AF19] | 5
COC(=O)c1cnc(N2C(=O)C(Cl)=C(C)C2O)cc1C(F)(F)F (centres unmarked) [AF42] | 4

Now consider a different compound.
Quick one: AMARE herbicidal damage score of COC1=C(C)C(O)N(c2cc(C(F)(F)F)c(-c3cnc(OC)nc3)cn2)C1=O (centres unmarked) [AI14] ? 5

----------
- Test system: Amaranthus retroflexus
- Assay details: Post-emergence herbicidal activity, glasshouse pot test
- Type: in vivo
- Parameters: key: 0 = no damage to plant, 5 = total damage to plant
- Experimental parameters: Application post-emergence, rate 1000 g/ha, evaluated after 13 days
Below: a set of entries, each annotated with reported AMARE herbicidal damage score.
Lab note: record the figure alone, no unit after it.

Before answering, review these 5 worked examples.
Compound | Experimental value
CC1=C(Br)C(=O)N(c2ccc(C(F)(F)F)cn2)C1O (centres unmarked) [AG2] | 5
CC1=C(Cl)C(=O)N(c2ccc(C)cn2)C1O (centres unmarked) [AF69] | 5
CCOC(=O)C(C)(C)c1cc(N2C(=O)C(Cl)=C(C)C2O)ncn1 (centres unmarked) [CF11] | 2
CC1=C(Cl)C(=O)N(c2ccc(Cl)cn2)C1O (centres unmarked) [AF65] | 5
CC1=C(Cl)C(=O)N(c2cc(C(F)F)ccn2)C1O (centres unmarked) [AF34] | 4

State its AMARE herbicidal damage score on Amaranthus retroflexus: CCC1=C(Cl)C(=O)N(c2cc(C(F)(F)F)ccn2)C1O (centres unmarked) [AF84] 4

State its AMARE herbicidal damage score on Amaranthus retroflexus: CC1=C(Cl)C(=O)N(c2ncc(C(F)(F)F)cc2F)C1O (centres unmarked) [AF63] 0

----------
- Test system: Abutilon theophrasti
- Assay details: Pre-emergence herbicidal activity, glasshouse pot test
- Assay type: in vivo
- Experimental parameters: pre-emergence spray, rate 1000 g/ha, evaluated after 13 days, scale 0-5
Measured attribute: ABUTH damage score, application pre-emergence
Lab note: record the figure alone, no unit after it.

State its ABUTH damage score, application pre-emergence on Abutilon theophrasti: CC1=C(Cl)C(=O)N(c2cc(C(C)C)c(C(=O)OC(C)C)cn2)C1O (stereo not shown) [AF23] 1

State its ABUTH damage score, application pre-emergence on Abutilon theophrasti: CCCC1=C(Cl)C(=O)N(c2cc(C(F)(F)F)ccn2)C1O (stereo not shown) [AF81] 4

State its ABUTH damage score, application pre-emergence on Abutilon theophrasti: CC1=C(Br)C(=O)N(c2cc(C(F)(F)F)ccn2)C1O (stereo not shown) [AG1] 5

State its ABUTH damage score, application pre-emergence on Abutilon theophrasti: CC1=C(Cl)C(=O)N(c2ncc(F)cc2F)C1O (stereo not shown) [AF62] 2

State its ABUTH damage score, application pre-emergence on Abutilon theophrasti: COC1=C(C)C(O)N(c2cc(C(C)(C)C)c(Cl)nn2)C1=O (stereo not shown) [BI1] 4

State its ABUTH damage score, application pre-emergence on Abutilon theophrasti: COC1=C(C)C(O)N(c2ccc(N)cn2)C1=O (stereo not shown) [AI28] 2

State its ABUTH damage score, application pre-emergence on Abutilon theophrasti: CC1=C(Cl)C(=O)N(c2ncc(C(F)(F)F)cc2F)C1O (stereo not shown) [AF63] 0
